Reference for the values: patent US20230250060A1

Target: STING (Homo sapiens, UniProt Q86WV6, G230A/H232R/R293Q/R71H)
Sequence (Q86WV6 whole entry R71H/G230A/H232R/R293Q): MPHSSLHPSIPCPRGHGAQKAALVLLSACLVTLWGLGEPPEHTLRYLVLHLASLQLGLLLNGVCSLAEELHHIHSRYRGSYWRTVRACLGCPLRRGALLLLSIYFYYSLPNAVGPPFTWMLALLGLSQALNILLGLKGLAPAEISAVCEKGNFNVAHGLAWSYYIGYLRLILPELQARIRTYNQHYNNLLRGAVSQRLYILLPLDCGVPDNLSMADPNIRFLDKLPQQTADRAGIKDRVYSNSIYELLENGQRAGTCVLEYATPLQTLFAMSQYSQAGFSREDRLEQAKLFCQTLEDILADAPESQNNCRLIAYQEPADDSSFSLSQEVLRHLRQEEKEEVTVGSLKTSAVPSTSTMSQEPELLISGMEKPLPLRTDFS
Assay: STING reporter assay (luciferase) in THP1-Dual KO-IFNAR2 cells stimulated with 2′3′cGAMP
Conditions: 2′3′cGAMP 15 μM final, 24 h, luciferase reporter activity, read-out: Pharmaron, THP1_IFNAR2 STING 24 h Luci Normalized: GeoMean EC50
Reported endpoint: EC50

{"columns": ["Chemical structure", "EC50"],
 "data": [
  ["O=C(Nc1c[nH]c2ccc(CCOc3ccc(C(F)(F)F)cc3)cc12)c1nccs1", "200 to 1000 nM"]
]}

Enquiry: Find the recorded EC50 belonging to O=C(Nc1c[nH]c2ccc(OCc3ccc(C(F)(F)F)cc3)cc12)C12CC(C1)C2 and report it.
Return: 200 to 1000 nM

Enquiry: I would be grateful if you could share the reported EC50 for O=C(Nc1c[nH]c2ccc(OCC[C@@H]3C[C@@H]4CN(CC(F)(F)F)C[C@@H]4C3)cc12)c1nccs1 .
Return: 200 to 1000 nM

Enquiry: Find the recorded EC50 belonging to Cc1noc(C)c1C(=O)Nc1c[nH]c2ccc(OCc3ccc(C(F)(F)F)cc3)cc12 and report it.
Return: 200 to 1000 nM

Enquiry: Looking for the measured EC50 of O=C(Nc1c[nH]c2ccc(OCc3ccc(C(F)(F)F)cc3)cc12)C1CC2(CCC2)C1 , can you help?
Return: 200 to 1000 nM

Enquiry: Param item = O=C(Nc1c[nH]c2ccc(CCOc3ccc(C(F)(F)F)cc3)cc12)C12CC(C1)C2 ; retrieve measured EC50.
Return: 200 to 1000 nM

Enquiry: Using the record for O=C(Nc1c[nH]c2ccc(O[C@H]3C[C@H](c4ccc(C(F)(F)F)cc4)C3)cc12)C1CC2(COC2)C1 , report its EC50.
Return: 40 to 200 nM

* * *

Target: STING (Homo sapiens, UniProt Q86WV6, G230A/H232R/R293Q/R71H)
Assay: STING reporter assay (luciferase) in THP1-Dual KO-IFNAR2 cells stimulated with 2′3′cGAMP
Conditions: 2′3′cGAMP 15 μM final, 24 h, luciferase reporter activity, read-out: Pharmaron, THP1_IFNAR2 STING 24 h Luci Normalized: GeoMean EC50
pEC50: −log10 of the molar value.
Reported endpoint: pEC50

{"columns": ["Chemical structure", "Reported endpoint", "Result value"],
 "data": [
  ["O=C(Nc1c[nH]c2ccc(OCCc3ccc(C(F)(F)F)cc3)cc12)C12CC(C1)C2", "pEC50", "6.00 to 6.70"]
]}

Enquiry: // query pEC50 value for entry O=C(Nc1c[nH]c2ccc(OCCc3ccc(C(F)(F)F)cc3)cc12)c1cscn1
Return: 6.00 to 6.70

Enquiry: Can you share its pEC50? I mean this compound: Cn1ccnc1C(=O)Nc1c[nH]c2ccc(OCCc3ccc(C(F)(F)F)cc3)cc12
Return: 6.70 to 7.40

Enquiry: Which pEC50 is reported for this compound? O=C(CC1CC1)Nc1c[nH]c2ccc(OCC[C@@H]3C[C@@H]4CN(CC(F)(F)F)C[C@@H]4C3)cc12
Return: 6.00 to 6.70

Enquiry: Item under review: O=C(Nc1c[nH]c2ccc(OCCc3ccc(C(F)(F)F)cc3)cc12)c1cccnc1 . Reported pEC50?
Return: 6.00 to 6.70

Enquiry: For the compound shown here, O=C(Nc1c[nH]c2ccc(O[C@H]3C[C@H](c4ccc(C(F)(F)F)cc4)C3)cc12)c1cccnc1 , give the reported pEC50.
Return: 6.00 to 6.70

Enquiry: Would you mind telling me what pEC50 value was observed for O=C(Nc1c[nH]c2ccc(O[C@H]3C[C@@H](c4ccc(C(F)(F)F)cc4)C3)cc12)C12CC(O)(C1)C2 ?
Return: 5.30 to 6.00

Enquiry: So what does the record say about pEC50 for O=C(Nc1c[nH]c2ccc(O[C@H]3C[C@H](c4ccc(C(F)(F)F)nc4)C3)cc12)c1ccccc1 ?
Return: 6.00 to 6.70

Enquiry: Recorded pEC50 for Cn1cc(C(=O)Nc2c[nH]c3ccc(O[C@H]4C[C@H](c5ccc(C(F)(F)F)cc5)C4)cc23)nn1 , please?
Return: 6.00 to 6.70
